# procedure.text: Single dose pharmacokinetic study in mice (iv 4 mg/Kg, po 20 mg/Kg), plasma concentration post-dosing
# Assay type: in vivo, mouse
# study.conditions: male, C57BL/6, mouse, plasma, po, 20 mg/kg, mouse, PO 20 mg/Kg, 0.250 h post dosing, mean of 3 mice; read-out: Plasma concentration, PO Time 0.250 h, Mean PO
assay.endpoint: concentration at 0.25 h (ng/mL)
Answers are plain numbers, in ng/mL.

CC(C)n1ccc(S(=O)(=O)NC(=O)Nc2c3c(cc4c2CCC4)CCC3)n1 | 60500

Next up:
Query :: Item CC(C)(O)c1coc(S(=O)(=O)NC(=O)Nc2c3c(cc4c2CCC4)CCC3)c1 [MCC_000950_016, reference compound] has what recorded concentration at 0.25 h?
Result :: 33300

---

Give measured MRT last for each item. Keep answers brief.
# procedure.text: Single dose pharmacokinetic study in mice (iv 4 mg/Kg, po 20 mg/Kg), plasma concentration post-dosing
# Format: in vivo, mouse
# study.conditions: male, C57BL/6, mouse, plasma, iv, 4 mg/kg, mouse, IV 4 mg/Kg, individual mice M1-M3; read-out: MRT0-last
// unit must come after the numeric part

I'm hoping you can list MRT last for every compound here, please.
1. CC(C)n1ccc(S(=O)(=O)NC(=O)Nc2c3c(cc4c2CCC4)CCC3)n1 [MCC_007840_002]
2. CC(C)(O)c1coc(S(=O)(=O)NC(=O)Nc2c3c(cc4c2CCC4)CCC3)c1 [MCC_000950_016, reference compound]

Result ::
1. 4.11 h
2. 2.77 h

---

# procedure.text: Single dose pharmacokinetic study in mice (iv 4 mg/Kg, po 20 mg/Kg), plasma concentration post-dosing
# Format: in vivo, mouse
# study.conditions: male, C57BL/6, mouse, plasma, iv, 4 mg/kg, mouse, IV 4 mg/Kg, mean of 3 mice; read-out: T1/2, Mean IV (converted)
assay.endpoint: half-life (h)
Answers are plain numbers, in h.

CC(C)n1ccc(S(=O)(=O)NC(=O)Nc2c3c(cc4c2CCC4)CCC3)n1 [MCC_007840_002] | 3.39

# ---- query compound ----
Query :: Bench note: what half-life did CC(C)(O)c1coc(S(=O)(=O)NC(=O)Nc2c3c(cc4c2CCC4)CCC3)c1 [MCC_000950_016, reference compound] show?
Result :: 2

---

Exercise: state measured concentration at 8 h for each of the compounds provided.
# procedure.text: Single dose pharmacokinetic study in mice (iv 4 mg/Kg, po 20 mg/Kg), plasma concentration post-dosing
# Type: in vivo, mouse
# study.conditions: male, C57BL/6, mouse, plasma, iv, 4 mg/kg, mouse, IV 4 mg/Kg, 8.00 h post dosing, individual mice M1-M3; read-out: Plasma concentration, IV Time 8.00 h

CC(C)(O)c1coc(S(=O)(=O)NC(=O)Nc2c3c(cc4c2CCC4)CCC3)c1 [MCC_000950_016, reference compound] | 905 ng/mL

Query :: What does the data say about its concentration at 8 h? Entry: CC(C)n1ccc(S(=O)(=O)NC(=O)Nc2c3c(cc4c2CCC4)CCC3)n1
Result :: 3490 ng/mL

---

# procedure.text: Single dose pharmacokinetic study in mice (iv 4 mg/Kg, po 20 mg/Kg), plasma concentration post-dosing
# Assay type: in vivo, mouse
# study.conditions: male, C57BL/6, mouse, plasma, po, 20 mg/kg, mouse, PO 20 mg/Kg, 0.500 h post dosing, individual mice M4-M6; read-out: Plasma concentration, PO Time 0.500 h
assay.endpoint: concentration at 0.5 h (ng/mL)
Answers are plain numbers, in ng/mL.

Query :: If you can, please state the reported concentration at 0.5 h value of CC(C)(O)c1coc(S(=O)(=O)NC(=O)Nc2c3c(cc4c2CCC4)CCC3)c1 [MCC_000950_016, reference compound] .
Result :: 20400
